# PROCEDURE SUMMARY: clinical
# ASSAY CONTEXT: male, human, in vivo, po, 100 mg, AUC0-∞ (geometric mean)
READOUT TYPE: AUC(0-inf) (ng·h/mL)
The reply should contain only the number, in ng·h/mL.

Param item = `O[C@H]1CC[C@H](Nc2ncc3nc(Nc4c(F)cc(F)cc4F)n([C@H]4CCOC4)c3n2)CC1` ; retrieve measured AUC(0-inf). 16200

----------
# PROCEDURE SUMMARY: Pharmacokinetics of a single ascending oral dose in healthy male subjects
# Type: in vivo, human
# ASSAY CONTEXT: human, in vivo; single oral dose 50 mg, unformulated in capsule, healthy male subjects; median (min-max); read-out: Tmax
READOUT TYPE: Tmax (h)
Report only the number, with the unit h understood.

Returns the measured Tmax for the input compound. Input: `O[C@H]1CC[C@H](Nc2ncc3nc(Nc4c(F)cc(F)cc4F)n([C@H]4CCOC4)c3n2)CC1` 2
